Just for reference, patent US20040009904A1 is where these values come from.

biological target: ACA-6501; assay: Competitive binding peptide ACA ELISA, cardiolipin/β2-GPI-coated plates; design: species or system human; details: Optimization of Peptide 3G3; inf = no 50% inhibition
Bridge positions count the residues as written; N and C are the ends. Square brackets hold non-standard residues; d marks the D form. Peptide text beside a SMILES is read from it. Phg = N[C@H](C(=O)O)c1ccccc1
Listing of recorded with ACA 6501 150 ug/mL by entry.
# number only, unit µg/mL dropped from output

Before answering, review these 5 worked examples.
• CC(C)C[C@@H]1NC(=O)[C@H](CCCCN)NC(=O)CNC(=O)[C@H](CC(C)C)NC(=O)[C@H](C(C)C)NC(=O)CNC(=O)[C@H](CC(C)C)NC(=O)[C@@H](N)CSSC[C@@H](C(=O)N2CCC[C@H]2C(=O)NCC(=O)O)NC1=O [C L G V L G K L C P G] (H-CLGVLGKLCPG-OH; disulfide 1-9) = 460
• CC(C)C[C@@H]1NC(=O)[C@H](CCCCN)NC(=O)CNC(=O)[C@@H](CC(C)C)NC(=O)[C@@H](C(C)C)NC(=O)CNC(=O)[C@H](CC(C)C)NC(=O)[C@@H](N)CSSC[C@@H](C(=O)O)NC1=O [C L G dV dL G K L C] (H-CLG[dV][dL]GKLC-OH; disulfide 1-9) = 50
• CC(C)C[C@@H]1NC(=O)[C@H](C(C)C)NC(=O)CNC(=O)[C@H](CC(C)C)NC(=O)[C@@H](N)CSSC[C@@H](C(=O)O)NC(=O)[C@H](C)NC(=O)[C@H](CCCCN)NC(=O)CNC1=O [C L G V L G K A C] (H-CLGVLGKAC-OH; disulfide 1-9) = 360
• CC(C)C[C@@H]1NC(=O)[C@H](CCCCN)NC(=O)[C@H](C)NC(=O)[C@H](CC(C)C)NC(=O)[C@H](C(C)C)NC(=O)CNC(=O)[C@H](CC(C)C)NC(=O)[C@@H](N)CSSC[C@@H](C(=O)O)NC1=O [peptide 925, CLGVLAKLC] (H-CLGVLAKLC-OH; disulfide 1-9) = 40
• CC(C)C[C@@H]1NC(=O)[C@H](CCCCN)NC(=O)[C@@H](C)NC(=O)[C@H](CC(C)C)NC(=O)[C@H](C(C)C)NC(=O)CNC(=O)[C@H](CC(C)C)NC(=O)[C@@H](N)CSSC[C@@H](C(=O)O)NC1=O [C L G V L dA K L C] (H-CLGVL[dA]KLC-OH; disulfide 1-9) = 140

Asked: with ACA 6501 150 ug/mL of CC(C)C[C@@H]1NC(=O)[C@@H](NC(=O)[C@@H]2CCCN2C(=O)CN)CSSC[C@@H](C(=O)N2CCC[C@H]2C(=O)NCC(=O)O)NC(=O)[C@H](CC(C)C)NC(=O)[C@H](CCCCN)NC(=O)CNC(=O)[C@H](CC(C)C)NC(=O)[C@H](C(C)C)NC(=O)CNC1=O [G P C L G V L G K L C P G] (H-GPCLGVLGKLCPG-OH; disulfide 3-11) on ACA-6501?
Given back: 180

Asked: What do you get for CC(C)C[C@@H]1NC(=O)[C@H](CCCCN)NC(=O)CNC(=O)[C@H](c2ccccc2)NC(=O)[C@H](C(C)C)NC(=O)CNC(=O)[C@H](CC(C)C)NC(=O)[C@@H](N)CSSC[C@@H](C(=O)O)NC1=O [C L G Vp G G K L C] (H-CLGV[Phg]GKLC-OH; disulfide 1-9) ?
Given back: 35

###

Biological target: ACA-6501
Assay: Competitive binding peptide ACA ELISA, cardiolipin/β2-GPI-coated plates
Design: species or system human
Details: Optimization of Peptide 3G3; inf = no 50% inhibition
Source text: A variation of this assay uses microtitration plates coated with human β2-glycoprotein I/cardiolipin (β2-GPI/CL) instead of tetravalent peptide and tests the ability of monomeric peptides to block the binding of aPL antibody to the epitope(s) on β2-GPI/CL. In this assay, IgG-depleted human serum at an optimized concentration is used as a source of β2-GPI. […]
Bridge positions count the residues as written; N and C are the ends. Square brackets hold non-standard residues; d marks the D form. Peptide text beside a SMILES is read from it. NMeL = CN[C@@H](CC(C)C)C(=O)O
Listing of recorded with ACA 6501 150 ug/mL by entry.
Quick note: unit goes after the number.

Before answering, review these 2 worked examples.
* CC(C)C[C@@H]1NC(=O)[C@@H](NC(=O)[C@@H]2CCCN2C(=O)CNC(=O)[C@H](C)N)CSSC[C@@H](C(=O)N2CCC[C@H]2C(=O)NCC(=O)O)NC(=O)[C@H](CC(C)C)NC(=O)[C@H](CCCCN)NC(=O)CNC(=O)[C@H](CC(C)C)NC(=O)[C@H](C(C)C)NC(=O)CNC1=O [LJP 688, AGP-CLGVLGKLC-PG] (H-AGPCLGVLGKLCPG-OH; disulfide 4-12) | 850 µg/mL
* CC(C)C[C@@H]1NC(=O)[C@H](C(C)C)NC(=O)CNC(=O)[C@H](CC(C)C)NC(=O)[C@@H](N)CSSC[C@@H](C(=O)O)NC(=O)CNC(=O)[C@H](CCCCN)NC(=O)CNC1=O [C L G V L G K G C] (H-CLGVLGKGC-OH; disulfide 1-9) | 500 µg/mL

Asked: // query with ACA 6501 150 ug/mL value for entry CC(C)C[C@@H]1NC(=O)[C@H](CCCCN)NC(=O)CNC(=O)[C@H](CC(C)C)NC(=O)[C@H](C(C)C)NC(=O)[C@H](C)NC(=O)[C@H](CC(C)C)NC(=O)[C@@H](N)CSSC[C@@H](C(=O)O)NC1=O [C L A V L G K L C] (H-CLAVLGKLC-OH; disulfide 1-9)
Given back: 170 µg/mL

Asked: What do you get for CC(C)C[C@@H]1NC(=O)[C@H](CCCCN)NC(=O)CNC(=O)[C@@H](CC(C)C)NC(=O)[C@H](C(C)C)NC(=O)CNC(=O)[C@H](CC(C)C)NC(=O)[C@@H](N)CSSC[C@@H](C(=O)O)NC1=O [C L G V dL G K L C] (H-CLGV[dL]GKLC-OH; disulfide 1-9) ?
Given back: 230 µg/mL

Asked: What do you get for CC(C)C[C@@H]1NC(=O)[C@H](CCCCN)NC(=O)[C@@H]2CCCN2C(=O)[C@H](CC(C)C)NC(=O)[C@H](C(C)C)NC(=O)CNC(=O)[C@H](CC(C)C)NC(=O)[C@@H](N)CSSC[C@@H](C(=O)O)NC1=O [C L G V L P K L C] (H-CLGVLPKLC-OH; disulfide 1-9) ?
Given back: 350 µg/mL

Asked: What do you get for CC(C)C[C@@H]1NC(=O)[C@H](C(C)C)NC(=O)CNC(=O)[C@H](CC(C)C)NC(=O)[C@@H](N)CSSC[C@@H](C(=O)O)NC(=O)[C@H](CC(C)C)NC(=O)[C@@H]2CCCN2C(=O)CNC1=O [C L G V L G P L C] (H-CLGVLGPLC-OH; disulfide 1-9) ?
Given back: 160 µg/mL

Asked: What do you get for CC(C)C[C@@H]1NC(=O)[C@H](C(C)C)NC(=O)CNC(=O)[C@H](CC(C)C)NC(=O)[C@@H](N)CSSC[C@@H](C(=O)O)NC(=O)[C@H](CC(C)C)N(C)C(=O)[C@H](CCCCN)NC(=O)CNC1=O [C L G V L G K nL C] (H-CLGVLGK[NMeL]C-OH; disulfide 1-9) ?
Given back: 240 µg/mL
